System: HCT116-DoxR cells (doxorubicin resistant colorectal carcinoma)
Test name: MTS cell viability assay, HCT116-DoxR 2D
Assay type: cell-based, human
Applied conditions: 48 h of exposure, MTS, relative IC50, mean + SEM; read-out: IC50 HCT116-DoxR (2D)
Measurement label: pIC50
Notebook: values listed as pIC50 are -log10 of the concentration (mol/L).

- Smi: "COc1ccc2cc(-c3cc4[n+]5c(c3)-c3cccc[n+]3[Cu-3]5([Cl])([Cl])[n+]3ccccc3-4)ccc2c1"
  Measured target: "HCT116-DoxR cells (doxorubicin resistant colorectal carcinoma)"
  pIC50: 6.51

Q: // pIC50 lookup, key: [Cl][Cu-3]12([Cl])[n+]3ccccc3-c3cc(-c4cccc5ccccc45)cc([n+]31)-c1cccc[n+]12
Ans: 6.62

Q: Same for [Cl][Cu-3]12([Cl])[n+]3ccccc3-c3cc(-c4ccc5ccccc5c4)cc([n+]31)-c1cccc[n+]12
Ans: 6.54

These entries and their values trace back to paper PMC11571215.
